ASSAYED TARGET: Ba/F3 BCR-ABL1 T315M (Homo sapiens, UniProt P00519+P11274, T315M)
Construct: BCR (N-terminal fusion partner of the oncoprotein)
EXPERIMENT NOTES: Cell growth inhibitory activity assay (CellTiter-Glo), Ba/F3 BCR-ABL1 T315M cells
STUDY CONDITIONS: 72 h, CTG cell viability
ENDPOINT NAME: IC50

[[record]]
compound = "C[C@@H]1CC[S+]([O-])c2nc3cc(C(=O)Nc4ccc(OC(F)(F)Cl)cc4)cc(-c4cnccn4)c3n21 (some centres unmarked)"
assayed_target = "Ba/F3 BCR-ABL1 T315M (Homo sapiens, UniProt P00519+P11274, T315M)"
assay_result = "> 1 µM"

[[record]]
compound = "C[C@@H]1COCc2nc3cc(C(=O)Nc4ccc(OC(F)(F)Cl)cc4)cc(-c4cnc5c(c4)-c4nn(-c6ncccn6)cc4C5)c3n21"
assayed_target = "Ba/F3 BCR-ABL1 T315M (Homo sapiens, UniProt P00519+P11274, T315M)"
assay_result = "≤ 0.005 µM"

[[record]]
compound = "C[C@@H]1COCc2nc3cc(C(=O)Nc4ccc(OC(F)(F)Cl)cc4)cc(-c4cnc5c(c4)-c4nn(-c6cncnc6)cc4C5)c3n21"
assayed_target = "Ba/F3 BCR-ABL1 T315M (Homo sapiens, UniProt P00519+P11274, T315M)"
assay_result = "> 1 µM"

[[record]]
compound = "CC(=O)N[C@H]1CCC2c3cc(C(=O)Nc4ccc(OC(F)(F)Cl)cc4)cc(-c4cnccn4)c3N(C(C)C)C21 (some centres unmarked)"
assayed_target = "Ba/F3 BCR-ABL1 T315M (Homo sapiens, UniProt P00519+P11274, T315M)"
assay_result = "> 1 µM"

[[record]]
compound = "C[C@@H]1COCc2nc3cc(C(=O)Nc4ccc(OC(F)(F)Cl)cc4)cc(-c4cnc5c(c4)-c4nc(N)sc4C5)c3n21"
assayed_target = "Ba/F3 BCR-ABL1 T315M (Homo sapiens, UniProt P00519+P11274, T315M)"
assay_result = "> 1 µM"

[[record]]
compound = "C[C@@H]1CCS(=O)(=O)c2nc3cc(C(=O)Nc4ccc(OC(F)(F)Cl)cc4)cc(-c4cnccn4)c3n21"
assayed_target = "Ba/F3 BCR-ABL1 T315M (Homo sapiens, UniProt P00519+P11274, T315M)"
assay_result = "0.05 to 1 µM"

[[record]]
compound = "[2H]C([2H])([2H])N1Cc2ncc(-c3cc(C(=O)Nc4ccc(OC(F)(F)Cl)cc4)cc4nc5n(c34)[C@H](C)COC5)cc2C1=O"
assayed_target = "Ba/F3 BCR-ABL1 T315M (Homo sapiens, UniProt P00519+P11274, T315M)"
assay_result = "0.005 to 0.05 µM"

[[record]]
compound = "C[C@@H]1COCc2nc3cc(C(=O)Nc4ccc(OC(F)(F)Cl)cc4)cc(-c4cnc5c(c4)-c4nn(C6CC6)cc4C5)c3n21"
assayed_target = "Ba/F3 BCR-ABL1 T315M (Homo sapiens, UniProt P00519+P11274, T315M)"
assay_result = "> 1 µM"


response.value for `C[C@@H]1COCc2nc3cc(C(=O)Nc4ccc(OC(F)(F)Cl)cc4)cc(-c4cnc5c(c4)-c4nn(-c6nccc(C#N)n6)cc4C5)c3n21` (field: IC50) = ≤ 0.005 µM

response.value for `CC(C)n1cc2c(n1)-c1cc(-c3cc(C(=O)Nc4ccc(OC(F)(F)Cl)cc4)cc4nc5n(c34)[C@H](C)COC5)cnc1C2` (field: IC50) = > 1 µM

response.value for `C[C@@H]1CCOCc2nc3cc(C(=O)Nc4ccc(OC(F)(F)Cl)cc4)cc(-c4cnc5c(c4)C(=O)N(C)C5)c3n21` (field: IC50) = > 1 µM

response.value for `C[C@@H]1COCc2nc3cc(C(=O)Nc4ccc(OC(F)(F)Cl)cc4)cc(-c4cnc5c(c4)-c4n[nH]cc4C5)c3n21` (field: IC50) = 0.05 to 1 µM

response.value for `C[C@@H]1COCc2nc3cc(C(=O)Nc4ccc(OC(F)(F)Cl)cc4)cc(-c4cnc5c(c4)C(=O)N(C4CC4)C5)c3n21` (field: IC50) = > 1 µM

response.value for `C[C@@H]1CN(C)CCc2nc3cc(C(=O)Nc4ccc(OC(F)(F)Cl)cc4)cc(-c4cnc5c(c4)C(=O)N(C4CC4)C5)c3n21` (field: IC50) = > 1 µM

response.value for `C[C@@H]1CCSc2nc3cc(C(=O)Nc4ccc(OC(F)(F)Cl)cc4)cc(-c4cnc5c(c4)C(=O)N(C)C5)c3n21` (field: IC50) = > 1 µM

response.value for `Cc1cc(C)nc(-n2cc3c(n2)-c2cc(-c4cc(C(=O)Nc5ccc(OC(F)(F)Cl)cc5)cc5nc6n(c45)[C@H](C)COC6)cnc2C3)n1` (field: IC50) = ≤ 0.005 µM

response.value for CC(=O)NC1CCC2c3cc(C(=O)Nc4ccc(OC(F)(F)Cl)cc4)cc(-c4cnc5c(c4)C(=O)N(C)C5)c3N(C(C)C)C12 (racemic) (field: IC50) = > 1 µM

---

ASSAYED TARGET: Ba/F3 BCR-ABL1 P465S (Homo sapiens, UniProt P00519+P11274, P465S)
Construct: BCR (N-terminal fusion partner of the oncoprotein); expressed in transfected cells; host or cells: Ba/F3 (lentiviral transduction, monoclonal line)
EXPERIMENT NOTES: Cell growth inhibitory activity assay (CellTiter-Glo), Ba/F3 BCR-ABL1 P465S cells
Format: cell-based
STUDY CONDITIONS: 72 h, CTG cell viability
ENDPOINT NAME: IC50

Would you please look over these solved cases?
[[record]]
compound_string = "C[C@@H]1CCSc2nc3cc(C(=O)Nc4ccc(OC(F)(F)Cl)cc4)cc(-c4cnc5c(c4)C(=O)N(C)C5)c3n21"
endpoint_name = "IC50"
assay_result = "0.05 to 1 µM"

[[record]]
compound_string = "[2H]C([2H])([2H])N1Cc2ncc(-c3cc(C(=O)Nc4ccc(OC(F)(F)Cl)cc4)cc4nc5n(c34)[C@H](C)COC5)cc2C1=O"
endpoint_name = "IC50"
assay_result = "0.05 to 1 µM"

[[record]]
compound_string = "C[C@@H]1COCc2nc3cc(C(=O)Nc4ccc(OC(F)(F)Cl)cc4)cc(-c4cnc5c(c4)-c4nn(-c6cnccn6)cc4C5)c3n21"
endpoint_name = "IC50"
assay_result = "0.05 to 1 µM"

[[record]]
compound_string = "C[C@@H]1COCc2nc3cc(C(=O)Nc4ccc(OC(F)(F)Cl)cc4)cc(-c4cnccn4)c3n21"
endpoint_name = "IC50"
assay_result = "0.05 to 1 µM"


response.value for `C[C@@H]1COCc2nc3cc(C(=O)Nc4ccc(OC(F)(F)Cl)cc4)cc(-c4cnc5c(c4)-c4nn(CC(F)(F)F)cc4C5)c3n21` (field: IC50) = 0.005 to 0.05 µM

response.value for `CC(C)n1cc2c(n1)-c1cc(-c3cc(C(=O)Nc4ccc(OC(F)(F)Cl)cc4)cc4nc5n(c34)[C@H](C)COC5)cnc1C2` (field: IC50) = 0.05 to 1 µM

response.value for `C[C@@H]1COCc2nc3cc(C(=O)Nc4ccc(OC(F)(F)Cl)cc4)cc(-c4cnc5c(c4)C(=O)N(C)C5)c3n21` (field: IC50) = 0.05 to 1 µM

response.value for `CCn1cc2c(n1)-c1cc(-c3cc(C(=O)Nc4ccc(OC(F)(F)Cl)cc4)cc4nc5n(c34)[C@H](C)COC5)cnc1C2` (field: IC50) = 0.005 to 0.05 µM

response.value for `C[C@@H]1COCc2nc3cc(C(=O)Nc4ccc(OC(F)(F)Cl)cc4)cc(-c4cnc5c(c4)-c4nn(C6COC6)cc4C5)c3n21` (field: IC50) = 0.05 to 1 µM

response.value for `C[C@@H]1COCc2nc3cc(C(=O)Nc4ccc(OC(F)(F)Cl)cc4)cc(-c4cnc5c(c4)-c4nn(S(C)(=O)=O)cc4C5)c3n21` (field: IC50) = 0.05 to 1 µM

---

ASSAYED TARGET: Ba/F3 BCR-ABL1 WT (Homo sapiens, UniProt P00519+P11274)
Construct: BCR (N-terminal fusion partner of the oncoprotein)
Sequence (P00519 28-1130 limits assumed, one chain of several): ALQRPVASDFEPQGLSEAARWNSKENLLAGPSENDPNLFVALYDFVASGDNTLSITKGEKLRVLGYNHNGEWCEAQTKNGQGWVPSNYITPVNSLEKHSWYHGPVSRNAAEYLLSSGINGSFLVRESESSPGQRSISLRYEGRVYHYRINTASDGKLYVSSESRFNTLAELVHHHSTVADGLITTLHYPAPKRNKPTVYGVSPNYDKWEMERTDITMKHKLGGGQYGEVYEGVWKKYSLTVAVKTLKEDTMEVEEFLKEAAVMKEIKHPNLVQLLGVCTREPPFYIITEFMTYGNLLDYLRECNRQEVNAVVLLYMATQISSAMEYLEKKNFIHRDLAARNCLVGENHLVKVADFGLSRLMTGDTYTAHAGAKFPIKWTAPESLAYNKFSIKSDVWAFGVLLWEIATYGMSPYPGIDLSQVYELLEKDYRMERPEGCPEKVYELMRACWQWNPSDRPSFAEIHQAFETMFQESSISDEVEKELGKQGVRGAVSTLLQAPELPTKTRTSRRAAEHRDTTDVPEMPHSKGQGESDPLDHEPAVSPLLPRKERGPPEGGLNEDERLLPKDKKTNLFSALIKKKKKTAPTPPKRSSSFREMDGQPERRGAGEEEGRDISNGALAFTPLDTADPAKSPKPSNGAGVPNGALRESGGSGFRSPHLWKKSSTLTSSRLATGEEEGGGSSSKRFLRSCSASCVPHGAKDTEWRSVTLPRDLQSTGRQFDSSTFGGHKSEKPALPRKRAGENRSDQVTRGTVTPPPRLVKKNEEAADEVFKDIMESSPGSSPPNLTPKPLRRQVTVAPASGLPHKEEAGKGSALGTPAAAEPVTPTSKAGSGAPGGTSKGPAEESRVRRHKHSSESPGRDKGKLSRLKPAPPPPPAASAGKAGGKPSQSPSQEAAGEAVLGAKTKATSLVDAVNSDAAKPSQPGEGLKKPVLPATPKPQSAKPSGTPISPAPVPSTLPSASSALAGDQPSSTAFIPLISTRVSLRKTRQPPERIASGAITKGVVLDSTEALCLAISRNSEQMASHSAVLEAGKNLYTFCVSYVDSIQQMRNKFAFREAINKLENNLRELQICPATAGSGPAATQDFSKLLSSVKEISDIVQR
EXPERIMENT NOTES: Cell growth inhibitory activity assay (CellTiter-Glo), Ba/F3 BCR-ABL1 WT cells
STUDY CONDITIONS: 72 h, CTG cell viability
ENDPOINT NAME: IC50

[[record]]
molecule = "O=C(Nc1ccc(OC(F)(F)Cl)cc1)c1cnc(N2CC[C@@H](F)C2)c(-c2cnc3c(c2)-c2nn(-c4ncc(F)cn4)cc2C3F)c1 (stereo partly drawn)"
endpoint_name = "IC50"
assay_result = "≤ 5 nM"

[[record]]
molecule = "CCC(=O)n1cc2c(n1)-c1cc(-c3cc(C(=O)Nc4ccc(OC(F)(F)Cl)cc4)cc4nc5n(c34)[C@H](C)COC5)cnc1C2"
endpoint_name = "IC50"
assay_result = "≤ 5 nM"


response.value for `C[C@@H]1COCc2nc3cc(C(=O)Nc4ccc(OC(F)(F)Cl)cc4)cc(-c4cnc5c(c4)-c4nn(C)cc4C5)c3n21` (field: IC50) = ≤ 5 nM
